The origin of these recorded values is ChEMBL document CHEMBL3351596.

I'd appreciate it if you could supply selectivity ratio values for the items below.
- Test Name: Selectivity index, ratio of EC50 for human THP1 cells to EC50 for Leishmania donovani MHOM/IND/80/Dd8 amastigotes infected in human THP1 cells
- Format: toxicity, cell-based, THP-1
- Experimental Conditions: read-out: Ratio EC50
Respond with the number and no other words.

Fill blank: measured selectivity ratio of the compound c1c[n+]2ccc1NCCOCCNc1cc[n+](cc1)CCOCC2 is ____.
6.2

Which selectivity ratio value is on record for c1c[n+]2ccc1NCCCCCNc1cc[n+](cc1)CCOCC2 ?
16.6

What value of selectivity ratio has been recorded for this entry: c1c[n+]2ccc1NCCOCCNc1cc[n+](cc1)CCCCC2
4.9

Please give the measured selectivity ratio for this compound: c1cc2ccc1CNc1cc[n+](cc1)CCOCC[n+]1ccc(cc1)NC2
3.5
